Test system: HeLa Kyoto
Test: melting temperature (median over replicates), in situ; higher = more thermally stable
Conditions: cell cycle stage: G1/S

{"seq text": "MAVADLALIPDVDIDSDGVFKYVLIRVHSAPRSGAPAAESKEIVRGYKWAEYHADIYDKVSGDMQKQGCDCECLGGGRISHQSQDKKIHVYGYSMAYGPAQHAISTEKIKAKYPDYEVTWANDGY [PHPT1]", "measurement units": "°C", "melting temperature": 52.9}
{"seq text": "MRKPDSKIVLLGDMNVGKTSLLQRYMERRFPDTVSTVGGAFYLKQWRSYNISIWDTAGREQFHGLGSMYCRGAAAIILTYDVNHRQSLVELEDRFLGLTDTASKDCLFAIVGNKVDLTEEGALAGQEKEECSPNMDAGDRVSPRAPKQVQLEDAVALYKKILKYKMLDEQDVPAAEQMCFETSAKTGYNVDLLFETLFDLVVPMILQQRAERPSHTVDISSHKPPKRTRSGCCA [RAB20]", "measurement units": "°C", "melting temperature": 54.4}
{"seq text": "MCNTPTYCDLGKAAKDVFNKGYGFGMVKIDLKTKSCSGVEFSTSGHAYTDTGKASGNLETKYKVCNYGLTFTQKWNTDNTLGTEISWENKLAEGLKLTLDTIFVPNTGKKSGKLKASYKRDCFSVGSNVDIDFSGPTIYGWAVLAFEGWLAGYQMSFDTAKSKLSQNNFALGYKAADFQLHTHVNDGTEFGGSIYQKVNEKIETSINLAWTAGSNNTRFGIAAKYMLDCRTSLSAKVNNASLIGLGYTQTLRPGVKLTLSALIDGKNFSAGGHKVGLGFELEA [VDAC3]", "measurement units": "°C", "melting temperature": 61.6}
{"seq text": "MAAKVFESIGKFGLALAVAGGVVNSALYNVDAGHRAVIFDRFRGVQDIVVGEGTHFLIPWVQKPIIFDCRSRPRNVPVITGSKDLQNVNITLRILFRPVASQLPRIFTSIGEDYDERVLPSITTEILKSVVARFDAGELITQRELVSRQVSDDLTERAATFGLILDDVSLTHLTFGKEFTEAVEAKQVAQQEAERARFVVEKAEQQKKAAIISAEGDSKAAELIANSLATAGDGLIELRKLEAAEDIAYQLSRSRNITYLPAGQSVLLQLPQ [PHB]", "measurement units": "°C", "melting temperature": 59.5}
{"seq text": "MPLELELCPGRWVGGQHPCFIIAEIGQNHQGDLDVAKRMIRMAKECGADCAKFQKSELEFKFNRKALERPYTSKHSWGKTYGEHKRHLEFSHDQYRELQRYAEEVGIFFTASGMDEMAVEFLHELNVPFFKVGSGDTNNFPYLEKTAKKGRPMVISSGMQSMDTMKQVYQIVKPLNPNFCFLQCTSAYPLQPEDVNLRVISEYQKLFPDIPIGYSGHETGIAISVAAVALGAKVLERHITLDKTWKGSDHSASLEPGELAELVRSVRLVERALGSPTKQLLPCEMACNEKLGKSVVAKVKIPEGTILTMDMLTVKVGEPKGYPPEDIFNLVGKKVLVTVEEDDTIMEELVDNHGKKIKS [NANS]", "measurement units": "°C", "melting temperature": 53}
{"seq text": "MASSEQAEQPSQPSSTPGSENVLPREPLIATAVKFLQNSRVRQSPLATRRAFLKKKGLTDEEIDMAFQQSGTAADEPSSLGPATQVVPVQPPHLISQPYSPAGSRWRDYGALAIIMAGIAFGFHQLYKKYLLPLILGGREDRKQLERMEAGLSELSGSVAQTVTQLQTTLASVQELLIQQQQKIQELAHELAAAKATTSTNWILESQNINELKSEINSLKGLLLNRRQFPPSPSAPKIPSWQIPVKSPSPSSPAAVNHHSSSDISPVSNESTSSSPGKEGHSPEGSTVTYHLLGPQEEGEGVVDVKGQVRMEVQGEEEKREDKEDEEDEEDDDVSHVDEEDCLGVQREDRRGGDGQINEQVEKLRRPEGASNESERD [PEX14]", "measurement units": "°C", "melting temperature": 53.2}

---

System: HeLa Kyoto
Experiment: thermal stability score vs G1/S (z-score of summed log2 fold changes over temperatures); higher = more thermally stable than in G1/S
Details: cell cycle stage: mitosis
Use t when the recorded thermal stability score is no lower than -3; use f when it is lower.

{"seq text": "MADRDSGSEQGGAALGSGGSLGHPGSGSGSGGGGGGGGGGGGSGGGGGGAPGGLQHETQELASKRVDIQNKRFYLDVKQNAKGRFLKIAEVGAGGNKSRLTLSMSVAVEFRDYLGDFIEHYAQLGPSQPPDLAQAQDEPRRALKSEFLVRENRKYYMDLKENQRGRFLRIRQTVNRGPGLGSTQGQTIALPAQGLIEFRDALAKLIDDYGVEEEPAELPEGTSLTVDNKRFFFDVGSNKYGVFMRVSEVKPTYRNSITVPYKVWAKFGHTFCKYSEEMKKIQEKQREKRAACEQLHQQQQQQQEETAAATLLLQGEEEGEED [PURA]", "answer label": "f"}
{"seq text": "MGIQTSPVLLASLGVGLVTLLGLAVGSYLVRRSRRPQVTLLDPNEKYLLRLLDKTTVSHNTKRFRFALPTAHHTLGLPVGKHIYLSTRIDGSLVIRPYTPVTSDEDQGYVDLVIKVYLKGVHPKFPEGGKMSQYLDSLKVGDVVEFRGPSGLLTYTGKGHFNIQPNKKSPPEPRVAKKLGMIAGGTGITPMLQLIRAILKVPEDPTQCFLLFANQTEKDIILREDLEELQARYPNRFKLWFTLDHPPKDWAYSKGFVTADMIREHLPAPGDDVLVLLCGPPPMVQLACHPNLDKLGYSQKMRFTY [CYB5R1]", "answer label": "t"}
{"seq text": "MAAAGAPDGMEEPGMDTEAETVATEAPARPVNCLEAEAAAGAAAEDSGAARGSLQPAPAQPPGDPAAQASVSNGEDAGGGAGRELVDLKIIWNKTKHDVKFPLDSTGSELKQKIHSITGLPPAMQKVMYKGLVPEDKTLREIKVTSGAKIMVVGSTINDVLAVNTPKDAAQQDAKAEENKKEPLCRQKQHRKVLDKGKPEDVMPSVKGAQERLPTVPLSGMYNKSGGKVRLTFKLEQDQLWIGTKERTEKLPMGSIKNVVSEPIEGHEDYHMMAFQLGPTEASYYWVYWVPTQYVDAIKDTVLGKWQYF [UBFD1]", "answer label": "t"}
{"seq text": "MVQAWYMDDAPGDPRQPHRPDPGRPVGLEQLRRLGVLYWKLDADKYENDPELEKIRRERNYSWMDIITICKDKLPNYEEKIKMFYEEHLHLDDEIRYILDGSGYFDVRDKEDQWIRIFMEKGDMVTLPAGIYHRFTVDEKNYTKAMRLFVGEPVWTAYNRPADHFEARGQYVKFLAQTA [ADI1]", "answer label": "t"}
{"seq text": "MRQKHYLEAAARGLHDSCPGQARYLLWAYTSSHDDKSTFEETCPYCFQLLVLDNSRVRLKPKARLTPKIQKLLNREARNYTLSFKEAKMVKKFKDSKSVLLITCKTCNRTVKHHGKSRSFVSTLKSNPATPTSKLSLKTPERRTANPNHDMSGSKGKSPASVFRTPTSGQSVSTCSSKNTSKTKKHFSQLKMLLSQNESQKIPKVDFRNFLSSLKGGLLK [C18ORF21]", "answer label": "t"}

---

System: HeLa Kyoto
Experiment: thermal stability score vs G1/S (z-score of summed log2 fold changes over temperatures); higher = more thermally stable than in G1/S
Settings: cell cycle stage: early G1 (4.5 h after nocodazole release)
Use MET when the recorded thermal stability score is no lower than -0.2; use NOT MET when it is lower.

{"seq text": "MYPESTTGSPARLSLRQTGSPGMIYSTRYGSPKRQLQFYRNLGKSGLRVSCLGLGTWVTFGGQITDEMAEQLMTLAYDNGINLFDTAEVYAAGKAEVVLGNIIKKKGWRRSSLVITTKIFWGGKAETERGLSRKHIIEGLKASLERLQLEYVDVVFANRPDPNTPMEETVRAMTHVINQGMAMYWGTSRWSSMEIMEAYSVARQFNLTPPICEQAEYHMFQREKVEVQLPELFHKIGVGAMTWSPLACGIVSGKYDSGIPPYSRASLKGYQWLKDKILSEEGRRQQAKLKELQAIAERLGCTLPQLAIAWCLRNEGVSSVLLGASNADQLMENIGAIQVLPKLSSSIIHEIDSILGNKPYSKKDYRS [KCNAB2]", "target under test": "HeLa Kyoto", "answer label": "NOT MET"}
{"seq text": "MAYQLYRNTTLGNSLQESLDELIQSQQITPQLALQVLLQFDKAINAALAQRVRNRVNFRGSLNTYRFCDNVWTFVLNDVEFREVTELIKVDKVKIVACDGKNTGSNTTE [GTF2A2]", "target under test": "HeLa Kyoto", "answer label": "MET"}
{"seq text": "MEPTAPSLTEEDLTEVKKDALENLRVYLCEKIIAERHFDHLRAKKILSREDTEEISCRTSSRKRAGKLLDYLQENPKGLDTLVESIRREKTQNFLIQKITDEVLKLRNIKLEHLKGLKCSSCEPFPDGATNNLSRSNSDESNFSEKLRASTVMYHPEGESSTTPFFSTNSSLNLPVLEVGRTENTIFSSTTLPRPGDPGAPPLPPDLQLEEEGTCANSSEMFLPLRSRTVSRQ [BCL10]", "target under test": "HeLa Kyoto", "answer label": "NOT MET"}
{"seq text": "MEDDAPVIYGLEFQARALTPQTAETDAIRFLVGTQSLKYDNQIHIIDFDDENNIINKNVLLHQAGEIWHISASPADRGVLTTCYNRTSDSKVLTCAAVWRMPKELESGSHESPDDSSSTAQTLELLCHLDNTAHGNMACVVWEPMGDGKKIISLADNHILLWDLQESSSQAVLASSASLEGKGQLKFTSGRWSPHHNCTQVATANDTTLRGWDTRSMSQIYCIENAHGQLVRDLDFNPNKQYYLASCGDDCKVKFWDTRNVTEPVKTLEEHSHWVWNVRYNHSHDQLVLTGSSDSRVILSNMVSISSEPFGHLVDDDDISDQEDHRSEEKSKEPLQDNVIATYEEHEDSVYAVDWSSADPWLFASLSYDGRLVINRVPRALKYHILL [TSSC1]", "target under test": "HeLa Kyoto", "answer label": "NOT MET"}
{"seq text": "MSGELPPNINIKEPRWDQSTFIGRANHFFTVTDPRNILLTNEQLESARKIVHDYRQGIVPPGLTENELWRAKYIYDSAFHPDTGEKMILIGRMSAQVPMNMTITGCMMTFYRTTPAVLFWQWINQSFNAVVNYTNRSGDAPLTVNELGTAYVSATTGAVATALGLNALTKHVSPLIGRFVPFAAVAAANCINIPLMRQRELKVGIPVTDENGNRLGESANAAKQAITQVVVSRILMAAPGMAIPPFIMNTLEKKAFLKRFPWMSAPIQVGLVGFCLVFATPLCCALFPQKSSMSVTSLEAELQAKIQESHPELRRVYFNKGL [SFXN1]", "target under test": "HeLa Kyoto", "answer label": "NOT MET"}
